The reader will find reported kinase still bound, per cent of control values listed item by item below.
Target: RIPK2 (human)
Experiment: KINOMEscan competition binding
Conditions: compound 10.0 µM
Write the answer as a number in %, unit excluded.

Record excerpt, results attached:
Quick one: give measured kinase still bound, per cent of control for COc1ccc(-c2ccc3c(N4CCOCC4)nc(N4C[C@@H](C)O[C@@H](C)C4)nc3n2)cc1CO 100

Quick one: give measured kinase still bound, per cent of control for CC(C)n1nc(-c2cc3cc(O)ccc3[nH]2)c2c(N)ncnc21 0.8

Quick one: give measured kinase still bound, per cent of control for CCC(=O)N1CCN(c2ccc(-n3c(=O)ccc4cnc5ccc(-c6cnc7ccccc7c6)cc5c43)cc2C(F)(F)F)CC1 44

From here, focus on the item given below.
Quick one: give measured kinase still bound, per cent of control for COC(=O)Nc1ccc(-c2nc(N3CCOCC3)c3cnn(C4CCN(C(=O)OC)CC4)c3n2)cc1 65
